Measured % Binding accompanies every entry in the list below.
Biological target: T1, DLL3 on CT26.DLL3 cells (Homo sapiens (Human), UniProt Q9NYJ7 27-618)
T1 construct: CT26.DLL3 are engineered cells to express DLL3
T1 sequence: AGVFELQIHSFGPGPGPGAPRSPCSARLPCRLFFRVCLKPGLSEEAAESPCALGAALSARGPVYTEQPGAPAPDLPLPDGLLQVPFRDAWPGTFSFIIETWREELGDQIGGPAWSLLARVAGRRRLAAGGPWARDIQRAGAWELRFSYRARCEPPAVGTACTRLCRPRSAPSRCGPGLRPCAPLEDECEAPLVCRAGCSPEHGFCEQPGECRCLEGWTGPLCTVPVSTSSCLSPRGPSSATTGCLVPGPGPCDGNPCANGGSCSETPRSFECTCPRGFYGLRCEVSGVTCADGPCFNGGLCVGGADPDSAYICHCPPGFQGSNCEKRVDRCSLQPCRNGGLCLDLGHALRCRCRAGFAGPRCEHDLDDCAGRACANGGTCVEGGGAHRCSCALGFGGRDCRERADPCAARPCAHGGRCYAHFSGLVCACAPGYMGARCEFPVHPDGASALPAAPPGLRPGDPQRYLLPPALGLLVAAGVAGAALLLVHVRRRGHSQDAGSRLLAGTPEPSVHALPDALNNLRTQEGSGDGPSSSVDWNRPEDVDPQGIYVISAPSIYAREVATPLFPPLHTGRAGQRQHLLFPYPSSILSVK
Assay: 177Lu-peptide bound to CT26.DLL3 cells, gamma counting; letter grade, key in paragraph 629
Procedure: The study was conducted using SHP-77, CT26.WT, and CT26.DLL3 cells (Table 7) Adherent cell studies: The cells were cultured in appropriate culture media (20 mL) in tissue culture treated T150 flasks at 37° C. and 5% CO2. […] Total uptake: Cells were incubated with 300 μL (0.8 μCi) of the incubation buffer (containing radiolabeled peptide [¹⁷⁷Lu] Lu-test peptide) for 1 hour at 37° C. […] The supernatant and washes were combined and counted together as “unbound fraction” in a gamma counter. […]
Bridge positions count the residues as written; N and C are the ends. Square brackets hold non-standard residues; d marks the D form. * marks the point of attachment. DOTA = O=C(O)CN1CCN(CC(=O)O)CCN(CC(=O)*)CCN(CC(=O)O)CC1; Ala(morpholin-4-yl) = N[C@@H](CN1CCOCC1)C(=O)O; 2Nal = N[C@@H](Cc1ccc2ccccc2c1)C(=O)O; 3Pal = N[C@@H](Cc1cccnc1)C(=O)O; 4Pal = N[C@@H](Cc1ccncc1)C(=O)O

Consider the reported % Binding for these binders:
- BINDER: "Ac-WTICNN[2Nal]KDCWP[dK](DOTA)-NH2 (disulfide 4-10; also: 177Lu in the DOTA chelator, also called [177Lu]Lu-test peptide) [[177Lu]Lu-labelled Cpd No. 237]"
  RECORDED_RESULT: "≤ 25%"
- BINDER: "Ac-WTICNNWHDCWP[dK](DOTA)-NH2 (disulfide 4-10; also: 177Lu chelated in DOTA, also called [177Lu]Lu-test peptide) [[177Lu]Lu-labelled Cpd No. 23]"
  RECORDED_RESULT: "≤ 25%"

-- ask Kindly indicate its recorded % Binding. Item: Ac-WTIC[3Pal]N[2Nal]HDCWP[dK](DOTA)-NH2 (disulfide 4-10; also: 177Lu in the DOTA chelator, also called [177Lu]Lu-test peptide) [[177Lu]Lu-labelled Cpd No. 263]
-- reply ≤ 25%

-- ask Please look at this binder and report its % Binding: Ac-WTIC[4Pal]N[2Nal]HDCWP[dK](DOTA)-NH2 (disulfide 4-10; also: 177Lu in the DOTA chelator, also called [177Lu]Lu-test peptide) [[177Lu]Lu-labelled Cpd No. 264]
-- reply ≤ 25%

-- ask Could you please provide reported % Binding for Ac-WTIC[Ala(morpholin-4-yl)]N[2Nal]HDCWP[dK](DOTA)-NH2 (disulfide 4-10; also: 177Lu in the DOTA chelator, also called [177Lu]Lu-test peptide) [[177Lu]Lu-labelled Cpd No. 261] ? Thanks!
-- reply ≤ 25%

-- ask Provide % Binding value for the following binder: Ac-WTICN[4Pal][2Nal]HDCWP[dK](DOTA)-NH2 (disulfide 4-10; also: 177Lu in the DOTA chelator, also called [177Lu]Lu-test peptide) [[177Lu]Lu-labelled Cpd No. 266]
-- reply ≤ 25%

src = patent US20250011368A1
